test: AlphaScreen counterscreen against bio-H3K4me2 peptide in the absence of enzyme (artifact signal); conditions: counterscreen, bio-H3K4me2 peptide, no enzyme;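 also: counterscreen run without enzyme against bio-H3K4me2 peptide to remove false positive hits from the JARID1 demethylase AlphaScreen screen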
MEASURED_ATTRIBUTE: Artifact signal: effect of the compound when it is incubated with bio-H3K4me2 peptide
Give bare numbers.

Answered cases to consult:
>>> assay_result("O=C(NCCOc1ccccc1)c1ccccc1")
"−1.42"
>>> assay_result("CC[C@]1(O)C[C@H]2CN(CCc3c([nH]c4ccccc34)[C@@](C(=O)OC)(c3cc4c(cc3OC)N(C=O)[C@H]3[C@@](O)(C(=O)OC)[C@H](OC(C)=O)[C@]5(CC)C=CCN6CC[C@]43[C@@H]65)C2)C1.O=S(=O)(O)O [YU221071, VINCRISTINE SULFATE, reference compound]")
"−1.27"

Turning to the following compound.
(Q) Using the record for N=C(NCCCCCCNC(=N)NC(=N)Nc1ccc(Cl)cc1)NC(=N)Nc1ccc(Cl)cc1 [YU033734, CHLORHEXIDINE, reference compound] , report its Artifact signal: effect of the compound when it is incubated with bio-H3K4me2 peptide.
(A) 1.97

###

molecular target: JARID1B (Homo sapiens, UniProt Q9UGL1); construct: The FLAG tagged full length JARID1B enzyme was expressed in Sf21 insect cells using FLAG-JARID1B baculoviruses; FLAG (N); made in house; host or cells: Sf21 insect cells (baculovirus); assay: FLAG-JARID1B histone demethylase assay with AlphaScreen detection (HTS and dose response); format: biochemical; settings: validation of HTS actives; effect of compound in JARID1B AlphaScreen assay;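 also: compound tested at 20 µM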
Sequence (Q9UGL1 whole entry): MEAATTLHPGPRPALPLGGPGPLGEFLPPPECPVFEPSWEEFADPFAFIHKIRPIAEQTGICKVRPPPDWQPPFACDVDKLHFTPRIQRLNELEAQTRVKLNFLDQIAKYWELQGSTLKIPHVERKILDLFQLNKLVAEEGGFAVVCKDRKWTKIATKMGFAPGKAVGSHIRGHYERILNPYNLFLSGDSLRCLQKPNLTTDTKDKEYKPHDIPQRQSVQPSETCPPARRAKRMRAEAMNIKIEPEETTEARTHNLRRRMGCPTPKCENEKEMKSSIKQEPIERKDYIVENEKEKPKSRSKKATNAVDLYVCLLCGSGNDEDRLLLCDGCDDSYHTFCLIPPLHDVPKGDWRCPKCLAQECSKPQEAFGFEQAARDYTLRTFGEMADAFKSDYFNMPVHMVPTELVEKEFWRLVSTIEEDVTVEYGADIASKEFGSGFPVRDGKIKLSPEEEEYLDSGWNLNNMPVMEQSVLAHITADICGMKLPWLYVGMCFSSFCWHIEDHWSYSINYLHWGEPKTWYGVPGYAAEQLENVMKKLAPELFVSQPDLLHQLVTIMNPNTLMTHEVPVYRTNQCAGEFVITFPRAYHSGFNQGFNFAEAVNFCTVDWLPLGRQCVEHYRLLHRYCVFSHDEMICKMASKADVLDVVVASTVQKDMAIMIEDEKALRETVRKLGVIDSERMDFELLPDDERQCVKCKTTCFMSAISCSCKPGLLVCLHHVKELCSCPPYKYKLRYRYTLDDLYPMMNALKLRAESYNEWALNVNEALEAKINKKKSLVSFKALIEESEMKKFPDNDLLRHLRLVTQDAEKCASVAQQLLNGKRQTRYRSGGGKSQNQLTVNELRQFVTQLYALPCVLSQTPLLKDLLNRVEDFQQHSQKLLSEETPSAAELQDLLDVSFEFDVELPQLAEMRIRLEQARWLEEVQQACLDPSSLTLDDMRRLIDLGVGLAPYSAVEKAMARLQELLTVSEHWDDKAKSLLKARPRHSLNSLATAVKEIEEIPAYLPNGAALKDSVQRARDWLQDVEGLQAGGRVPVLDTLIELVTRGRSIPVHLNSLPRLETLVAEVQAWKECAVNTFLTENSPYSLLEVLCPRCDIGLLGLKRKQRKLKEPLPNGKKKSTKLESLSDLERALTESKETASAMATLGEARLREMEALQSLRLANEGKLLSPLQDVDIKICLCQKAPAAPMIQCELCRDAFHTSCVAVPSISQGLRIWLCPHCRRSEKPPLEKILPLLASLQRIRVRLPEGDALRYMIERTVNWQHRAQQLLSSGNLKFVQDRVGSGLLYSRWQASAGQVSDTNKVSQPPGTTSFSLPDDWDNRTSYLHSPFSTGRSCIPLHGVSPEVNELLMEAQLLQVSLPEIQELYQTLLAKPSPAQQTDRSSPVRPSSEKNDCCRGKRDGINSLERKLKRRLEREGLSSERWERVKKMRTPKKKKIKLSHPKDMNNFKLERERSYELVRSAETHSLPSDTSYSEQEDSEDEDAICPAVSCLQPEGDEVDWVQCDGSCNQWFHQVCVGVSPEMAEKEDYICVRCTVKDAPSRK
Where a name gives a salt, the structure may show the parent alone.
Would you mind telling me the reported Assay Signal (percent) of each entry?
One number for each entry, in %.

The following compounds have reported results that may help.
>>> assay_result("COC(=O)Nc1nnc(CC2CCCC2)s1")
18.33
>>> assay_result("CC(C)n1c(-c2ccccc2F)n[nH]c1=S")
36.22
>>> assay_result("CN1CCc2cccc3c2C1Cc1ccc(O)c(O)c1-3 (stereo not drawn) [YU033696, APOMORPHINE HYDROCHLORIDE, reference compound]")
66.78
>>> assay_result("O=c1c(O[C@@H]2O[C@H](CO)[C@H](O)[C@H](O)[C@H]2O)c(-c2ccc(O)c(O)c2)oc2cc(O)cc(O)c12 [YU221013, HYPEROSIDE, reference compound]")
51.29
>>> assay_result("Cc1cccc(NC(c2ccccn2)c2ccc3cccnc3c2O)n1 (stereo not drawn)")
46.45

# batch size: 4; output Assay Signal (percent) per entry
1. Cl.Cn1cccc1CNCc1ccncc1
2. CN(C)c1cccc2c(C=O)ccc(N(C)C)c12
3. Clc1ccc2nc(-c3ccccn3)c(Nc3ccc4c(c3)OCCO4)n2c1
4. CCCN1CCN(C(=O)c2ccncc2)CC1

(A)
1: 66.64; 2: 35.60; 3: 49.67; 4: 44.33

###

target: JARID1B (Homo sapiens, UniProt Q9UGL1); construct: The FLAG tagged full length JARID1B enzyme was expressed in Sf21 insect cells using FLAG-JARID1B baculoviruses; FLAG (N); made in house; host or cells: Sf21 insect cells (baculovirus); assay: FLAG-JARID1B histone demethylase assay with AlphaScreen detection (HTS and dose response); format: biochemical; conditions: assay signal minus artifact signal;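 also: FLAG-tagged JARID1B at 4 nM acting on a biotinylated H3K4me3 peptide, demethylation read by AlphaScreen luminescence, with hits checked against bio-H3K4me2 without enzyme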;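 also: compound tested at 20 µM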
Structures can show the parent of a compound that is named as a salt.
MEASURED_ATTRIBUTE: Assay − Artifact Signal (percent) (%)
Answers are plain numbers, in %.

Here's what some known entries look like.
>>> assay_result("CCOc1cccc(CNc2ccc(N3CCCC3)cc2)c1")
13.21
>>> assay_result("NNC(=O)c1ccncc1.Nc1ccc(C(=O)O)c(O)c1 [YU034557, PASINIAZID, reference compound]")
42.63
>>> assay_result("CCSc1nnc(-c2cc(OC)cc(OC)c2)o1")
15.14

Give Assay − Artifact Signal (percent) for each of the items listed below.
1. Cc1ccc(C)c(NS(=O)(=O)c2ccc3[nH]c(=O)oc3c2)c1
2. COc1ccc(-c2coc3cc(O)ccc3c2=O)c(O)c1O [YU155016, KOPARIN, reference compound]
3. CC(C)n1c(-c2ccccc2F)n[nH]c1=S
4. Oc1ccc2c(c1)OCC1(O)Cc3cc(O)c(O)cc3C21 (stereo not shown) [YU154998, BRAZILIN, reference compound]
5. Cc1ccc(CNn2cnnc2S)cc1
6. O=[N+]([O-])c1cc(O)c(O)c([N+](=O)[O-])c1 [YU034463, 3,5-DINITROCATECHOL, reference compound]
7. N#CC(=Cc1cc(O)c(O)c(O)c1)C(N)=C(C#N)C#N (single isomer, unassigned) [YU154835, TYRPHOSTIN 51, reference compound]
8. NC(CO)C(=O)NNCc1ccc(O)c(O)c1O (stereo not shown) [YU033702, BENSERAZIDE HYDROCHLORIDE, reference compound]

(A)
1: 11.28; 2: 13.76; 3: 31.49; 4: 15.98; 5: 44.07; 6: 27.05; 7: 23.04; 8: 52.50

For every listed record, write down its Assay − Artifact Signal (percent).
1. C=NC(C(=O)N[C@H]1C(=O)N2C1SC(C)(C)C2C(=O)O)c1ccccc1 (stereo in doubt) [YU034263, METAMPICILLIN SODIUM, reference compound]
2. C=CCNCCCCOc1cccc(OCC)c1
3. COc1cc(NC(C)CCCN)c2ncccc2c1 (stereo not shown) [YU033971, PRIMAQUINE DIPHOSPHATE, reference compound]
4. Fc1cccc(-c2nn3c(-c4ccccc4Cl)nnc3s2)c1
5. Cc1c(C(=O)O)cccc1-c1ccc(C=C[N+](=O)[O-])o1 (single isomer, unassigned)

(A)
[24.14, 8.13, 50.60, 14.96, 14.43]
